The listing below reports log10 GI50 for molecules tested on HCT-15.
Where a SMILES comes first, the peptide text is derived from it. The star is where a group is joined. Cbz = O=C(OCc1ccccc1)*; OBn = c1ccc(CO*)cc1
quantityKind: log10 GI50 (log10 of the value in µM)

{"molecule": "O=C(O)c1c2c(cc3c(=O)c4ccccc4[nH]c13)CCCC2", "quantityKind": "log10 GI50", "reported": 1.80}
{"molecule": "Cc1ccc(S(=O)(=O)NNC(=S)Nc2cccc3ccccc23)cc1", "quantityKind": "log10 GI50", "reported": 1.83}
{"molecule": "COc1cc(/C=C/c2nc(NC(=S)Nc3ccccc3)nnc2C)cc(OC)c1OC", "quantityKind": "log10 GI50", "reported": 1.05}
{"molecule": "C=C[C@]1(C)CCC2=C(CCC3C2(C)CCC[C@]3(C)CO)C1 (some centres not stated)", "quantityKind": "log10 GI50", "reported": 1.52}
{"molecule": "O=C(/C=C/c1ccccc1)NC1C=Nc2ccc([N+](=O)[O-])cc2NC1=O (configuration not stated)", "quantityKind": "log10 GI50", "reported": 1.37}
{"molecule": "CC(=O)Oc1ccc2c3c1[C@H]1O[C@H]1c1cccc(c1-3)[C@@H]1O[C@H]21", "quantityKind": "log10 GI50", "reported": 0.70}
{"molecule": "COc1cc(C2S/C(=C/c3ccccc3)C(=O)N2c2ccccc2Cl)cc(OC)c1OC (configuration not stated)", "quantityKind": "log10 GI50", "reported": 1.44}
{"molecule": "Brc1ccc(-c2[nH]c3ccccc3c2/N=N\\c2ccccc2)cc1", "quantityKind": "log10 GI50", "reported": 1.21}
{"molecule": "COc1cc(C(=O)/C=C/c2ccc(OCC#N)cc2)cc(OC)c1OC", "quantityKind": "log10 GI50", "reported": 1.29}
{"molecule": "O=c1c2ccccc2[nH]c(=S)n1-c1ccc(Br)cc1", "quantityKind": "log10 GI50", "reported": 1.86}
{"molecule": "NC1=CC(C(=O)c2ccncc2)c2nc3ccccc3nc21 (configuration not stated)", "quantityKind": "log10 GI50", "reported": 1.97}
{"molecule": "CCc1cccc(C)c1NC(=O)CCc1n[nH]c(=S)o1", "quantityKind": "log10 GI50", "reported": 1.74}
{"molecule": "Cc1ccc(O)c(C(c2ccc(C(c3cc(C)ccc3O)c3cc(C)ccc3O)cc2)c2cc(C)ccc2O)c1", "quantityKind": "log10 GI50", "reported": 0.26}
{"molecule": "COC(=O)C(Cc1ccc(O)cc1)NC(=O)C(CC(=O)OCc1ccccc1)NC(=O)OCc1ccccc1 (configuration not stated) (Cbz-Asp(OBn)-Tyr-OMe; configuration not given here)", "quantityKind": "log10 GI50", "reported": 1.26}
{"molecule": "CCCCCCCCCCCCSC(=S)c1c(C)[nH]n(CCCCCCCCCCCC)c1=O", "quantityKind": "log10 GI50", "reported": 1.81}
{"molecule": "CC(C)N1CCN(c2ccc(OCC3COC(Cn4cncn4)(c4ccc(Cl)cc4Cl)O3)cc2)CC1 (configuration not stated)", "quantityKind": "log10 GI50", "reported": 0.98}
{"molecule": "C/C1=C\\CC[C@@]2(C)O[C@@H]2C[C@@H]2[C@H](C/C(C)=C/CC1)OC(=O)C21CC1", "quantityKind": "log10 GI50", "reported": 1.44}
{"molecule": "COc1cc(-c2n[nH]cc2CCCC(=O)Nc2ccccc2[N+](=O)[O-])ccc1O", "quantityKind": "log10 GI50", "reported": 1.81}
{"molecule": "CCSC1=CC2(O)N(CCc3ccc(OC)c(OC)c3)C(=O)CC2(C(=O)OC)CC1=O (configuration not stated)", "quantityKind": "log10 GI50", "reported": 1.41}
{"molecule": "COc1cc(C=C2C(C)=NN(c3cccc(Cl)c3)C23SCC(=O)N3c2nc3ccccc3s2)ccc1O (configuration not stated)", "quantityKind": "log10 GI50", "reported": 1.48}
{"molecule": "Cc1cnc2[nH]c(-c3cccc(F)c3)cc(=O)c2c1", "quantityKind": "log10 GI50", "reported": -1.57}

----------
Item-by-item account of GI50
system: CAKI-1; assay: NCI tumour cell line growth inhibition, 48 h
Calls of active or inactive are those of the source. Rule as the data show it: active = GI50 up to about 1.1 µM and inactive = higher.

{"molecule": "CC1C=C(OC(=O)c2ccccc2)C(=O)C(n2cc(F)c(=O)[nH]c2=O)O1 (stereo not given)", "tgt": "CAKI-1", "GI50": "62.1 µM (inactive)"}
{"molecule": "CCOC(=O)Cc1csc(Nc2ccccc2[N+](=O)[O-])n1", "tgt": "CAKI-1", "GI50": "> 100 µM (inactive)"}
{"molecule": "COc1ccc(C(=O)/C=C/c2ccc(O)c(O)c2)c(OC)c1", "tgt": "CAKI-1", "GI50": "6.27 µM (inactive)"}
{"molecule": "O=[N+]([O-])c1ccc2oc(=N/c3ccccc3)/c(=N\\c3ccccc3)[nH]c2c1", "tgt": "CAKI-1", "GI50": "61.1 µM (inactive)"}
{"molecule": "CC(=O)Oc1ccc(/C=C/C(=O)NCC(NC(=O)/C=C/c2ccc(OC(C)=O)c(OC(C)=O)c2)C(=O)O)cc1OC(C)=O (stereo not given)", "tgt": "CAKI-1", "GI50": "> 100 µM (inactive)"}
{"molecule": "CCOC(=O)C(NC(=O)c1ccco1)(Nc1nc2ccc(OCC)cc2s1)C(F)(F)F (stereo not given)", "tgt": "CAKI-1", "GI50": "17.3 µM (inactive)"}
{"molecule": "CC(C)(C)c1ccc2c(c1)OP1(Oc3c(Cl)cc(Cl)c4cccnc34)(O2)Oc2ccc(C(C)(C)C)cc2O1", "tgt": "CAKI-1", "GI50": "3.78 µM (inactive)"}
{"molecule": "Nc1ccn(C2OC(COP(=O)(O)O)C(O)C2O)c(=O)n1 (stereo not given)", "tgt": "CAKI-1", "GI50": "14.4 µM (inactive)"}
{"molecule": "Fc1ccc(C2SCc3nc4ccccc4n32)cc1Cl (stereo not given)", "tgt": "CAKI-1", "GI50": "13 µM (inactive)"}
{"molecule": "Clc1ccccc1-c1nn2c(CCCCCCCCc3nnc4sc(-c5ccccc5Cl)nn34)nnc2s1", "tgt": "CAKI-1", "GI50": "> 100 µM (inactive)"}

----------
test system: ACHN; assay: NCI tumour cell line growth inhibition, 48 h
Activity calls are given as the source filed them. Cut-off read from the data, not from the text of the source: active = GI50 up to about 1.1 µM and inactive = higher.
Attribute: GI50
quantityKind: GI50

{"compound": "CCCC(CCN)(CCN)[N+](=O)[O-]", "reported": "> 100 µM (inactive)"}
{"compound": "O=C(/C=C/c1ccccc1)NC1C=Nc2ccc([N+](=O)[O-])cc2NC1=O (configuration not stated)", "reported": "26.2 µM (inactive)"}
{"compound": "Cc1cnc2[nH]c(-c3cccc(F)c3)cc(=O)c2c1", "reported": "0.0664 µM (active)"}
{"compound": "O=c1c(C(c2ccc(OCc3ccccc3)cc2)c2c(O)oc3ccccc3c2=O)c(O)oc2ccccc12", "reported": "23.4 µM (inactive)"}
{"compound": "COc1ccc2c(c1)N(CCC1CCCCN1C)c1ccccc1S2 (configuration not stated)", "reported": "13.8 µM (inactive)"}
{"compound": "CCCC(=O)Nc1cc(/C=C/C(=O)N2C[C@@H]3C[C@]34C2=CC(=O)c2[nH]cc(C)c24)n(C)c1", "reported": "0.0689 µM (active)"}
{"compound": "COC(=O)C(=O)C(CC(=O)Nc1c(C)cccc1C)C(=O)OC (configuration not stated)", "reported": "> 100 µM (inactive)"}
{"compound": "N#Cc1c(N)nc(S)c(C#N)c1-c1ccccc1", "reported": "> 100 µM (inactive)"}
{"compound": "CCCCNN", "reported": "> 100 µM (inactive)"}
{"compound": "CNc1ncnc2c1cnn2Cc1cn(COCC(O)CO)nn1 (configuration not stated)", "reported": "> 100 µM (inactive)"}
{"compound": "O=CN1CCN(C=S)CC1", "reported": "> 100 µM (inactive)"}
{"compound": "CN(CC(=O)O)CC(=O)O", "reported": "> 100 µM (inactive)"}

----------
system: Malme-3M; assay: NCI tumour cell line growth inhibition, 48 h
Activity calls are given as the source filed them. Cut-off read from the data, not from the text of the source: active = GI50 up to about 1.1 µM and inactive = higher.

{"compound": "CC(=O)c1c(O)c2c([nH]c1=O)CCCC2", "GI50": "> 100 µM (inactive)"}
{"compound": "CN(C)CCCc1cccc2[nH]c3c(c12)CN(C)CC3", "GI50": "95.9 µM (inactive)"}
{"compound": "CC(C)[C@H]1NC(=O)[C@H]2N=C(O[C@@H]2C)[C@@H]2CCCN2C(=O)[C@H](Cc2ccccc2)NC(=O)[C@@H]2CSC(=N2)[C@@H](Cc2ccccc2)NC(=O)[C@@H]2CSC1=N2", "GI50": "> 100 µM (inactive)"}
{"compound": "C=C(C(=C)P(=S)(C(C)C)C(C)C)P(=S)(C(C)C)C(C)C", "GI50": "> 100 µM (inactive)"}
{"compound": "Cc1ccc(C2=Nc3ccccc3[S+]([O-])C(c3ccc4c(c3)OCO4)C2)cc1 (stereo not given)", "GI50": "33.8 µM (inactive)"}
{"compound": "COC(=O)c1cc(C#N)[nH]c1-c1ccc(Br)s1", "GI50": "7.14 µM (inactive)"}
{"compound": "CSC1=NC(=O)CCN1C1OCC(OC(C)=O)C(OC(C)=O)C1OC(C)=O (stereo not given)", "GI50": "14.3 µM (inactive)"}
{"compound": "O=[N+]([O-])c1ccc2oc(=N/c3ccccc3)/c(=N\\c3ccccc3)[nH]c2c1", "GI50": "87.1 µM (inactive)"}
{"compound": "Cc1ccc(S(=O)(=O)OC2CS[S+]([O-])CC2OS(=O)(=O)c2ccc(C)cc2)cc1 (stereo not given)", "GI50": "14.6 µM (inactive)"}
{"compound": "CCN(CCCl)c1cc(CN(C)C)cc(NC(=O)c2cc(C(=O)Nc3cc(CN(C)C)cc(N(CC)CCCl)c3)n(C)n2)c1", "GI50": "1.49 µM (inactive)"}
{"compound": "COc1cc2c(cc1OC)CCc1cc(OC)c(OC)cc1CC2", "GI50": "> 100 µM (inactive)"}
{"compound": "O=C1CCCCC/C1=C\\c1ccc([N+](=O)[O-])cc1", "GI50": "43.7 µM (inactive)"}
{"compound": "FC(F)(F)c1ccc(C2=N/S(c3ccccc3)=N\\C(c3ccc(C(F)(F)F)cc3)=N/S(c3ccccc3)=N\\2)cc1 (stereo not given)", "GI50": "> 100 µM (inactive)"}
{"compound": "CO[C@H]1SC[C@H](OC(C)=O)[C@H](OC(C)=O)[C@H]1OC(C)=O", "GI50": "> 100 µM (inactive)"}
{"compound": "CCc1cccc(C)c1NC(=O)CCc1n[nH]c(=S)o1", "GI50": "> 100 µM (inactive)"}
{"compound": "N#CC(c1ccccc1)N1CCCN(C(C#N)c2ccccc2)C1c1ccccc1O (stereo not given)", "GI50": "> 100 µM (inactive)"}
{"compound": "COc1cc2c(cc1O)N=C[C@@H]1CC[C@@H](O)N1C2=O.COc1cc2c(cc1O)N=C[C@@H]1CC[C@H](O)N1C2=O", "GI50": "0.597 µM (active)"}
{"compound": "CC(C)(C)OC(=O)C1=C(N)N(Cc2ccccc2)C2(C)C=CC(=O)C=C12 (stereo not given)", "GI50": "4.92 µM (inactive)"}
{"compound": "CCCCNN", "GI50": "> 100 µM (inactive)"}
{"compound": "Nc1nncc2c1c(Br)cn2C1OC(CO)C(O)C1O (stereo not given)", "GI50": "> 79.1 µM (inactive)"}
